Would you kindly list melting point for each of these compounds?

>>> assay_result("CC(C)(C)OC(=O)Nc1ccc(-c2ccc(F)cc2)cc1NC(=O)CC(=O)c1cccc(C#N)c1")
"177 to 179 °C"
>>> assay_result("Cc1nccn1-c1nc(-c2ccc(Cl)cc2)c(CCCOc2ccccc2O)o1")
"110 to 111 °C"
>>> assay_result("CC(=O)OC1CC2C(=O)CC3C(CCC4(C)C(C(C)C=CC(C)C(C)C)CCC34)C2(C)CC1OC(C)=O (stereo not drawn)")
"196 to 197 °C"
>>> assay_result("CCOC(=O)C1=C(N)OC(C)=C(C(C)=O)C1c1cccc([N+](=O)[O-])c1 (stereo not drawn)")
"181 °C"
>>> assay_result("CC(C)Oc1c(C(=O)Nc2nnn[nH]2)sc2c1CN(C(=O)OC(C)(C)C)CC2")
"189 to 191 °C"
>>> assay_result("Cc1ncc(CC(=O)O)s1")
"144 °C"

Go through the list and state melting point for each entry.
1. CC(=O)NC(Cc1ccccc1)C(=O)Nc1c(C)cccc1C (stereo not drawn)
2. COc1cc2c(cc1OC)Sc1ccc(Cl)cc1C(Cl)C2 (stereo not drawn)

1. 217 to 218 °C
2. 139 to 141 °C

* * *

Would you kindly list melting point for each of these molecules?

// worked examples, melting point included
>>> assay_result("CCOC(=O)c1cnc2sc3c(c2c1O)CCCC3")
"138 to 140 °C"
>>> assay_result("CCC(CC)n1c(=O)sc2c(=O)[nH]c(N)nc21")
"> 232 °C"

From here, focus on the item given below.
// lookup melting point for COC(=O)/C=C/c1ccc(/C=C/c2csc(NC(C)=O)n2)s1
200 to 202 °C

* * *

readout.name: melting point

// worked examples, melting point included
>>> assay_result("CN(C)NC(=O)N1CCC(Br)C1=O (configuration not stated)")
"78 to 79 °C"
>>> assay_result("C=CC(=O)Oc1ccc(-c2cccc(F)c2F)cc1")
"88.4 to 90 °C"
>>> assay_result("O=C(Nc1cccc(Nc2ccc3c(c2)NC(=O)C3=Cc2ccc[nH]2)c1)Nc1cccc(C(F)(F)F)c1")
"253 to 256 °C"
>>> assay_result("CC=CC=CCOC(=O)C1=C(C)NC(C)=C(C(=O)OC(C)(C)C)C1c1cccc([N+](=O)[O-])c1 (configuration not stated)")
"152 to 154 °C"
>>> assay_result("CCOC(=O)c1nn(-c2ccc(Cl)cc2)c(=O)c2c(N)scc12")
"189 to 191 °C"

Go through the list and state melting point for each entry.
1. O=S1(=O)N=C(NCC2CCCCC2)Nc2cc(Cl)ccc21
2. CCOCC(OC(C)=O)C1CC(=O)C2(C)CCC3C(CCC4=CC(=O)C=C(C)C43C)C12 (configuration not stated)
3. Cc1cccc(C(=O)NCC2CC2)c1NC(=O)c1cc(C(F)(F)F)nn1-c1ncccc1Cl
4. CC(O)CCc1ccc2c(c1)Cc1ccccc1-2 (configuration not stated)
5. COc1ccc(S(=O)(=O)CC(CS(=O)(=O)c2ccc(OC)cc2)C(=O)NO)cc1
6. O=C(Cl)C12CC(C(=O)Cl)(C1)C2

["317 to 323 °C", "155 to 157 °C", "199 °C", "120 to 121 °C", "174 °C", "55 to 57 °C"]
